Subject Of Test: T1, full-length human GIPR with an N-terminal FLAG tag (human, UniProt P48546 22-466)
T1 sequence (looked up): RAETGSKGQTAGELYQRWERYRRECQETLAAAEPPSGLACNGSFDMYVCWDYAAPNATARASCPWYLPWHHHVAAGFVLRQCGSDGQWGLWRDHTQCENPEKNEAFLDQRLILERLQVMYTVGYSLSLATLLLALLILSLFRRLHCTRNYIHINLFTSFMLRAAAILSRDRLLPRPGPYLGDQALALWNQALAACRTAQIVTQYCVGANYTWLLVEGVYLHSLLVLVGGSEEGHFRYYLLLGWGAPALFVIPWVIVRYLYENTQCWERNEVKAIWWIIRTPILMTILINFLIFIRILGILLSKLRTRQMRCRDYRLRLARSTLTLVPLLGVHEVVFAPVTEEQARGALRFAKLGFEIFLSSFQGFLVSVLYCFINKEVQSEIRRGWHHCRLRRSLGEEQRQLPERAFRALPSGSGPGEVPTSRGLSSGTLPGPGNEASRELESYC
Test Summary: cell-based or functional assay
Starred links: 1 amine or outer side, 2 acyl side, 3 side chain; linkers in the order of their positions; H or OH if unused. Non-standard residues stand in square brackets, D forms with d. Groups on a side chain read outwards from the residue. No end group written: not given here. *: point of attachment. 2OEGgEgE‑C18 diacid = O=C(O)CCCCCCCCCCCCCCCCC(=O)N[C@@H](CCC(=O)N[C@@H](CCC(=O)NCCOCCOCC(=O)NCCOCCOCC(=O)*)C(=O)O)C(=O)O; C18 diacid = O=C(O)CCCCCCCCCCCCCCCCC(=O)*; C17 diacid = O=C(O)CCCCCCCCCCCCCCCC(=O)*; γGlu = O=C(O)[C@H](CCC(=O)[*:2])N[*:1]; NMeY = CN[C@@H](Cc1ccc(O)cc1)C(=O)O; AEEA = NCCOCCOCC(=O)O; Aib = CC(C)(N)C(=O)O
Experimental Readout: Human GIPR cAMP EC50, HEK293T (pM)
Lab book: enter the figure in pM, no units written.

>>> number("H-Y[Aib]EGTFISDYSIALDKIAQRK([AEEA-AEEA-γGlu-γGlu-C17 diacid])FVEWLLAQRPSSGAPPPS-OH [Compound No. 135]")
0.7
>>> number("[NMeY][Aib]EGTFISDYSIALDR[Aib]AQ[Aib]K(2OEGgEgE‑C20 diacid)FVNWLLAQKG-OH [Compound No. 39]")
1.7
>>> number("[NMeY][Aib]EGTFISDYSI[Aib]LDR[Aib]AQ[Aib]K([2OEGgEgE-C18 diacid])FVNWLLAQSPG-OH [Compound No. 85]")
0.4
>>> number("[NMeY][Aib]EGTFISDYSI[Aib]LDR[Aib]AQ[Aib]K([2OEGgEgE-C18 diacid])FVNWLLAQRG-OH [Compound No. 72]")
0.5
>>> number("[NMeY][Aib]EGTFISDYSIALDR[Aib]AQ[Aib]DFVNWLLAK(2OEGgEgE‑C18 diacid)RPSSGAPPPS-NH2 [Compound No. 58]")
0.4

Suppose we examine the binder [NMeY][Aib]EGTFISDYSIALDR[Aib]AQ[Aib]K([AEEA-AEEA-γGlu-γGlu-C18 diacid])FVNWLLAQRGGGGS-NH2 [Compound No. 21] ; what Human GIPR cAMP EC50, HEK293T value has been reported? 0.4

Next record, please: [NMeY][Aib]EGTFISDYSIAK([G5-γGlu-C18 diacid])DR[Aib]AQ[Aib]DFVNWLLAQRPSSGAPPPS-NH2 [Compound No. 24] 0.4

Next record, please: Y[Aib]EGTFISDYSIALDKAAQ[Aib]K([AEEA-AEEA-γGlu-γGlu-C18 diacid])FVEWLLAQRG-OH [Compound No. 154] 0.3

Next record, please: [NMeY][Aib]EGTFISDYSIAK([2OEGgEgE-C17 diacid])DR[Aib]AQ[Aib]NFVNWLLAQR-OH [Compound No. 7] 0.4

Next record, please: YXEGTFISDYSIAXDRXAQXNFVNWLLAQSPSSGAPPPS (N-terminus H; Aib at 2,17,20; Lys(G5-C18 diacid) at 14; C-terminal OH) [Compound No. 138] 0.8
